Tested on: C8166
method_notes: Anti HIV-1 activity was evaluated through C8166/GUN1WT syncytium formation assay at a concentration of 50 ug/mL
Format: functional, Homo sapiens
Where a SMILES comes first, the peptide text is derived from it. [ ]: non-standard residue; d: D form. The star is where a group is joined. sY = N[C@@H](Cc1ccc(OS(=O)(=O)O)cc1)C(=O)O; X1 = O=S(=O)(O)O*
assay_readout: Activity

Need Activity of CC(C)C[C@H](NC(=O)[C@H](CC(=O)OS(=O)(=O)O)NC(=O)[C@H](Cc1ccc(OS(=O)(=O)O)cc1)NC(=O)[C@H](COS(=O)(=O)O)NC(=O)[C@@H](N)Cc1ccc(OS(=O)(=O)O)cc1)C(=O)N[C@@H](CC(=O)OS(=O)(=O)O)C(=O)N[C@@H](Cc1ccc(OS(=O)(=O)O)cc1)C(=O)N[C@@H](Cc1ccc(OS(=O)(=O)O)cc1)C(=O)O , thanks.
231

Would you mind doing CC(C)C[C@H](NC(=O)[C@H](CC(=O)O)NC(=O)[C@H](Cc1ccc(O)cc1)NC(=O)[C@H](CO)NC(=O)[C@@H](N)Cc1ccc(O)cc1)C(=O)N[C@@H](CC(=O)O)C(=O)N[C@@H](Cc1ccc(O)cc1)C(=O)N[C@@H](Cc1ccc(O)cc1)C(=O)O (H-YSYDLDYY-OH) as well?
228

Would you mind doing CCN(CC)CC.CCN(CC)CC.CCN(CC)CC.CCN(CC)CC.CCN(CC)CC.CCN(CC)CC.CCN(CC)CC.CCN(CC)CC.COC(=O)C(=O)N1CCC[C@H]1C(=O)N[C@H](Cc1ccccc1)C(=O)Nc1ccccc1OCC(=O)N[C@@H](Cc1ccc(OS(=O)(=O)O)cc1)C(=O)N[C@@H](COS(=O)(=O)O)C(=O)N[C@@H](Cc1ccc(OS(=O)(=O)O)cc1)C(=O)N[C@@H](CC(=O)OS(=O)(=O)O)C(=O)N[C@@H](CC(C)C)C(=O)N[C@@H](CC(=O)OS(=O)(=O)O)C(=O)N[C@@H](Cc1ccc(OS(=O)(=O)O)cc1)C(=O)N[C@@H](Cc1ccc(OS(=O)(=O)O)cc1)C(=O)O as well?
219

Would you mind doing CCN(CC)CC.CCN(CC)CC.CCN(CC)CC.CCN(CC)CC.CCN(CC)CC.COC(=O)C(=O)N1CCC[C@H]1C(=O)N[C@H](Cc1ccccc1)C(=O)Nc1ccccc1OCC(=O)N[C@@H](Cc1ccc(OS(=O)(=O)O)cc1)C(=O)N[C@@H](CC(=O)OS(=O)(=O)O)C(=O)N[C@@H](CC(C)C)C(=O)N[C@@H](CC(=O)OS(=O)(=O)O)C(=O)N[C@@H](Cc1ccc(OS(=O)(=O)O)cc1)C(=O)N[C@@H](Cc1ccc(OS(=O)(=O)O)cc1)C(=O)O as well?
182

Would you mind doing CC(C)C[C@H](NC(=O)[C@H](CC(=O)OS(=O)(=O)O)NC(=O)[C@@H](N)Cc1ccc(OS(=O)(=O)O)cc1)C(=O)N[C@@H](CC(=O)OS(=O)(=O)O)C(=O)N[C@@H](Cc1ccc(OS(=O)(=O)O)cc1)C(=O)N[C@@H](Cc1ccc(OS(=O)(=O)O)cc1)C(=O)O.CCN(CC)CC.CCN(CC)CC.CCN(CC)CC.CCN(CC)CC.CCN(CC)CC (H-[sY]D(X1)LD(X1)[sY][sY]-OH) as well?
193

Would you mind doing COC(=O)C(=O)N1CCC[C@H]1C(=O)N[C@H](Cc1ccccc1)C(=O)Nc1ccccc1OCC(=O)N[C@@H](Cc1ccc(O)cc1)C(=O)N[C@@H](CO)C(=O)N[C@@H](Cc1ccc(O)cc1)C(=O)N[C@@H](CC(=O)O)C(=O)N[C@@H](CC(C)C)C(=O)N[C@@H](CC(=O)O)C(=O)N[C@@H](Cc1ccc(O)cc1)C(=O)N[C@@H](Cc1ccc(O)cc1)C(=O)O as well?
215

Would you mind doing COC(=O)C(=O)N1CCC[C@H]1C(=O)N[C@H](Cc1ccccc1)C(=O)Nc1ccccc1OCC(=O)N[C@@H](Cc1ccc(O)cc1)C(=O)N[C@@H](CC(=O)O)C(=O)N[C@@H](CC(C)C)C(=O)N[C@@H](CC(=O)O)C(=O)N[C@@H](Cc1ccc(O)cc1)C(=O)N[C@@H](Cc1ccc(O)cc1)C(=O)O as well?
155

====

Task for the reader: assign each of the following molecules its reported pIC50.
method_notes: Anti HIV-1 activity measured in terms of cytotoxicity against NP-2/CD4/CCR5 cells infected with HIV-1(GUN1WT)
Type: functional, cell-based, Homo sapiens
experimental_conditions: Homo sapiens, CCR5
Recall that pIC50 is obtained by taking minus log10 of the concentration measured in molar.

Need pIC50 of CCN(CC)CC.CCN(CC)CC.CCN(CC)CC.CCN(CC)CC.CCN(CC)CC.COC(=O)C(=O)N1CCC[C@H]1C(=O)N[C@H](Cc1ccccc1)C(=O)Nc1ccccc1OCC(=O)N[C@@H](Cc1ccc(OS(=O)(=O)O)cc1)C(=O)N[C@@H](CC(=O)OS(=O)(=O)O)C(=O)N[C@@H](CC(C)C)C(=O)N[C@@H](CC(=O)OS(=O)(=O)O)C(=O)N[C@@H](Cc1ccc(OS(=O)(=O)O)cc1)C(=O)N[C@@H](Cc1ccc(OS(=O)(=O)O)cc1)C(=O)O , thanks.
4.22

Would you mind doing COC(=O)C(=O)N1CCC[C@H]1C(=O)N[C@H](Cc1ccccc1)C(=O)Nc1ccccc1OCC(=O)N[C@@H](Cc1ccc(O)cc1)C(=O)N[C@@H](CC(=O)O)C(=O)N[C@@H](CC(C)C)C(=O)N[C@@H](CC(=O)O)C(=O)N[C@@H](Cc1ccc(O)cc1)C(=O)N[C@@H](Cc1ccc(O)cc1)C(=O)O as well?
3.92

FYI, the data here is from ChEMBL document CHEMBL1134813.
